Where do these numbers come from? They come from the Human Domainome abundance scans (Beltran et al. 2025).

For each record, write down the corresponding abundance fitness.
B1: Max-interacting protein 1, residues 70 to 120; numbered along this chain, P50539 (parent)
chain: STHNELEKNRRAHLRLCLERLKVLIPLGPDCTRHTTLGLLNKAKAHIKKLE

variants of: B1; test: abundance fitness (aPCA) (normalised: wild type 0, dead -1); higher = more abundant; growth selection in yeast, the domain comes from the species named; conditions: Homo sapiens
Give bare numbers.

Query block: Specify reported abundance fitness for the variant shown: A45I
Result block: 0.043

Query block: Specify reported abundance fitness for the variant shown: E19R
Result block: -0.513

Query block: Dear colleague, please send me the reported abundance fitness for K42A when you can.
Result block: -0.319

Query block: Please give the documented abundance fitness of R33H
Result block: -0.247

Query block: Give abundance fitness for the following variant: R33N
Result block: -0.372

// for each variant below, give its abundance fitness
1. I47R
2. D30L
3. K49G
4. I25V
5. G38E
6. T35A
7. K48Q
8. R20F

Result block:
1: -0.707; 2: 0.183; 3: -0.458; 4: -0.062; 5: -0.185; 6: 0.213; 7: -0.457; 8: -0.971

Below are some variants; for each one, tell me its abundance fitness.
1. K42L
2. I25F
3. G28F

Result block:
-0.641
-0.141
0.069

Hi there! I need abundance fitness for each item below, if you can.
1. L39V
2. L24T
3. L39W

Result block:
[-0.257, -0.455, 0.127]

For each of the items listed, what is its abundance fitness?
1. H13T
2. N4P

Result block:
[-0.353, -0.276]
